Hello, the source for this data is paper PMC5501724, in case you need it.

# Assay Target: HD-PTPBro1 (Bro1 domain of HD-PTP, 1-361) (Homo sapiens)
# Construct: HD-PTPBro1 (1-361) was cloned in a pNIC28-Bsa4 vector; made in house; host or cells: E. coli BL21 (DE3)
# Sequence (Q9H3S7 1-361): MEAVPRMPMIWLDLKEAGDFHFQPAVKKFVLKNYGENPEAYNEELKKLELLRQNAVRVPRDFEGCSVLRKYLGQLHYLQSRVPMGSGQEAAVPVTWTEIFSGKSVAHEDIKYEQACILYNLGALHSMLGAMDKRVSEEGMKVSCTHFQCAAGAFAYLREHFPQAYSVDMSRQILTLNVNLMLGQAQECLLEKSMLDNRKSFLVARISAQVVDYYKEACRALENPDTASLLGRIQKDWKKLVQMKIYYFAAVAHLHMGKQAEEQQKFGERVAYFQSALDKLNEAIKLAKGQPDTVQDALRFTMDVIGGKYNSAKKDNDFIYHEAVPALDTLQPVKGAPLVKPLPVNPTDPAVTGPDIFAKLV
# Procedure Text: Biosensor (SPR) binding of peptides to HD-PTPBro1
# Condition Details: 10 mM HEPES pH 7.4, 150 mM NaCl, 0.05% Tween 20, 25°C, poor binding, read-out: Binding (affinity bound) to HD-PTPBro1
Ends that are not written are not given here.
Assay Endpoint: Kd

// recorded Kd for `KAAVSDLDKLLDDFEQN` : > 1500 µM
